# Format: in vitro ADME, Human
# Assay Conditions: extraction ratio, compound at 1 uM, human liver microsomes 0.5 mg/mL
Please respond with reported Liver Microsomal Stability (ER) Human for every item in the list.
Returns: the value as a bare number; no unit string appended.

Query block: Let me know recorded Liver Microsomal Stability (ER) Human for CC1(C)[C@@H]2[C@@H](C(=O)N[C@H](C#N)C[C@@H]3CCCNC3=O)N(C(=O)[C@@H](NC(=O)C(F)F)C3CC3)C[C@@H]21 , thanks.
Result block: 0.09

Query block: Let me know recorded Liver Microsomal Stability (ER) Human for CC(C)C(=O)N[C@H](C(=O)N1C[C@H]2[C@@H]([C@H]1C(=O)N[C@@H](C[C@@H]1CCNC1=O)C(N)=O)C2(C)C)C(C)(C)C , thanks.
Result block: 0.18

Query block: Let me know recorded Liver Microsomal Stability (ER) Human for CC(C)(C)[C@H](NC(=O)C(F)F)C(=O)N1C[C@H]2[C@@H]([C@H]1C(=O)N[C@H](C#N)C[C@@H]1CCNC1=O)C2(C)C , thanks.
Result block: 0.01

Query block: Let me know recorded Liver Microsomal Stability (ER) Human for CC(C)C[C@H](NC(=O)c1cc2c(F)cccc2[nH]1)C(=O)N[C@H](C=O)C[C@@H]1CCNC1=O , thanks.
Result block: 0.18

Query block: Let me know recorded Liver Microsomal Stability (ER) Human for CC(C)C[C@H](NC(=O)c1cc2c(F)cccc2[nH]1)C(=O)N[C@H](C#N)C[C@@H]1CCNC1=O , thanks.
Result block: 0.02

----------
# Type: in vitro ADME
# Assay Conditions: extraction ratio, compound at 1 uM, beagle dog liver microsomes 0.5 mg/mL
Please respond with reported Liver Microsomal Stability (ER) Beagle dog for every item in the list.
Returns: the value as a bare number; no unit string appended.

Query block: Let me know recorded Liver Microsomal Stability (ER) Beagle dog for CC(C)(C)[C@H](NC(=O)C(F)F)C(=O)N1C[C@H]2[C@@H]([C@H]1C(=O)N[C@H](C#N)C[C@@H]1CCNC1=O)C2(C)C , thanks.
Result block: −0.01

Query block: Let me know recorded Liver Microsomal Stability (ER) Beagle dog for CC(C)(C)[C@H](NC(=O)C(F)(F)F)C(=O)N1C[C@H]2[C@@H]([C@H]1C(=O)N[C@H](C#N)C[C@@H]1CCCNC1=O)C2(C)C , thanks.
Result block: 0.16

Query block: Let me know recorded Liver Microsomal Stability (ER) Beagle dog for CC(C)C[C@H](NC(=O)c1cc2ccccc2[nH]1)C(=O)N[C@@H](C[C@@H]1CCNC1=O)C(=O)CO , thanks.
Result block: 0.03

Query block: Let me know recorded Liver Microsomal Stability (ER) Beagle dog for C=CC(=O)N[C@H](C[C@@H]1CCNC1=O)NC(=O)[C@H](CC1CCCCC1)NC(=O)OCc1ccccc1 , thanks.
Result block: 0.47

Query block: Let me know recorded Liver Microsomal Stability (ER) Beagle dog for CC(C)C(=O)N[C@H](C(=O)N1C[C@H]2[C@@H]([C@H]1C(=O)N[C@@H](C[C@@H]1CCNC1=O)C(N)=O)C2(C)C)C(C)(C)C , thanks.
Result block: 0.06

Query block: Let me know recorded Liver Microsomal Stability (ER) Beagle dog for CC(C)C(=O)N[C@H](C(=O)N1C[C@H]2[C@@H]([C@H]1C(=O)N[C@H](C#N)C[C@@H]1CCNC1=O)C2(C)C)C1CC1 , thanks.
Result block: 0.06

Query block: Let me know recorded Liver Microsomal Stability (ER) Beagle dog for C[C@H](NC(=O)[C@@H]1[C@@H]2[C@H](CN1C(=O)[C@@H](NC(=O)C(F)(F)F)C(C)(C)C)C2(C)C)C(=O)CCl , thanks.
Result block: 0.46

Query block: Let me know recorded Liver Microsomal Stability (ER) Beagle dog for CC(C)C[C@H](NC(=O)c1cc2c(F)cccc2[nH]1)C(=O)N[C@@H](C[C@@H]1CCNC1=O)C(=O)CCl , thanks.
Result block: 0.78

Query block: Let me know recorded Liver Microsomal Stability (ER) Beagle dog for CC(C)[C@H](NC(=O)[C@@H]1[C@@H]2[C@H](CN1C(=O)[C@@H](NC(=O)C(F)(F)F)C(C)(C)C)C2(C)C)C(=O)CCl , thanks.
Result block: 0.55

Query block: Let me know recorded Liver Microsomal Stability (ER) Beagle dog for CC(C)C[C@H](NC(=O)C(F)F)C(=O)N1C[C@H]2[C@@H]([C@H]1C(=O)N[C@H](C=O)C[C@@H]1CCNC1=O)C2(C)C , thanks.
Result block: 0.10

Query block: Let me know recorded Liver Microsomal Stability (ER) Beagle dog for CC(C)C[C@H](NC(=O)c1cc2ccccc2[nH]1)C(=O)N[C@H](C=O)C[C@@H]1CCNC1=O , thanks.
Result block: 0.09

Query block: Let me know recorded Liver Microsomal Stability (ER) Beagle dog for CC(C)(C)C(=O)N[C@H](C(=O)N1C[C@H]2[C@@H]([C@H]1C(=O)N[C@H](C#N)C[C@@H]1CCNC1=O)C2(C)C)C(C)(C)C , thanks.
Result block: 0.52

----------
# Assay Conditions: mouse oral PK, female Balb/c, 40 mg/kg single dose, plasma
One threshold, 400 ng·h/mL, splits the recorded AUC0-t values: lower ones are fulfilled, equal or higher ones are not fulfilled.

Query block: Determine if CC(C)(C)[C@H](NC(=O)C(F)(F)F)C(=O)N1C[C@H]2[C@@H]([C@H]1C(=O)N[C@@H](C[C@@H]1CCNC1=O)C(=O)CO)C2(C)C [Compound D-1-c] shows AUC0-t strictly lower than 400 ng·h/mL.
Result block: not fulfilled

Query block: Determine if CC(C)C[C@H](NC(=O)C(F)F)C(=O)N1C[C@H]2[C@@H]([C@H]1C(=O)N[C@H](C#N)C[C@@H]1CCNC1=O)C2(C)C [Compound H-1-b] shows AUC0-t strictly lower than 400 ng·h/mL.
Result block: fulfilled

Query block: Determine if CC(C)(C)[C@H](NC(=O)C(F)(F)F)C(=O)N1C[C@H]2[C@@H]([C@H]1C(=O)N[C@H](C#N)C[C@@H]1CCCNC1=O)C2(C)C [Compound D-3-a] shows AUC0-t strictly lower than 400 ng·h/mL.
Result block: not fulfilled

Query block: Determine if C[C@@H](OC(C)(C)C)[C@H](NC(=O)OCc1ccccc1)C(=O)N[C@@H](CC1CCCCC1)C(=O)N[C@H](C=O)C[C@@H]1CCNC1=O [Compound C-2-b] shows AUC0-t strictly lower than 400 ng·h/mL.
Result block: not fulfilled

Query block: Determine if CC(C)(C)[C@H](NC(=O)C(F)(F)F)C(=O)N1C[C@H]2[C@@H]([C@H]1C(=O)N[C@H](C=O)C[C@@H]1CCNC1=O)C2(C)C [Compound D-1-f] shows AUC0-t strictly lower than 400 ng·h/mL.
Result block: not fulfilled

Query block: Determine if CC(C)(C)[C@H](NC(=O)C(F)F)C(=O)N1C[C@H]2[C@@H]([C@H]1C(=O)N[C@H](C#N)C[C@@H]1CCNC1=O)C2(C)C [Compound D-3-b] shows AUC0-t strictly lower than 400 ng·h/mL.
Result block: not fulfilled

Query block: Determine if CC(C)C[C@H](NC(=O)c1cc2ccccc2[nH]1)C(=O)N1C[C@H]2[C@@H]([C@H]1C(=O)N[C@H](C=O)C[C@@H]1CCNC1=O)C2(C)C [Compound G-1-a] shows AUC0-t strictly lower than 400 ng·h/mL.
Result block: fulfilled

Query block: Determine if CC(C)C[C@H](CC(=O)[C@@H](NC(=O)OCc1ccccc1)[C@@H](C)OC(C)(C)C)C(=O)N[C@H](C=O)C[C@@H]1CCNC1=O [Compound C-1-b] shows AUC0-t strictly lower than 400 ng·h/mL.
Result block: fulfilled

Query block: Determine if Cc1cccc2[nH]c(C(=O)N[C@@H](CC(C)C)C(=O)N[C@@H](C[C@@H]3CCNC3=O)C(=O)CO)cc12 [Compound A-4-d] shows AUC0-t strictly lower than 400 ng·h/mL.
Result block: fulfilled

Query block: Determine if CC(C)C[C@H](NC(=O)c1cc2ccccc2[nH]1)C(=O)N1C[C@H]2[C@@H]([C@H]1C(=O)N[C@H](C#N)C(C)(C)C)C2(C)C [Compound G-3-b] shows AUC0-t strictly lower than 400 ng·h/mL.
Result block: fulfilled

Query block: Determine if CC(C)C[C@H](NC(=O)C1CC1)C(=O)N1C[C@H]2[C@@H]([C@H]1C(=O)N[C@H](C#N)C[C@@H]1CCNC1=O)C2(C)C [Compound H-1-f] shows AUC0-t strictly lower than 400 ng·h/mL.
Result block: fulfilled

----------
Please respond with reported Cmax for every item in the list.
# Assay Comment: in vivo
# Assay Conditions: female, Balb/c, mouse, po, 40 mg/kg
Value and unit, in that order.

Query block: Let me know recorded Cmax for CC(C)C[C@H](NC(=O)c1cc2c(F)cccc2[nH]1)C(=O)N[C@@H](C[C@@H]1CCNC1=O)C(=O)CO [Compound A-3-e] , thanks.
Result block: 131 ng/mL

Query block: Let me know recorded Cmax for CC(C)C[C@H](NC(=O)c1cc2ccccc2[nH]1)C(=O)N[C@H](C=O)C[C@@H]1CCNC1=O [Compound A-1-c] , thanks.
Result block: 734 ng/mL

Query block: Let me know recorded Cmax for CC(C)C[C@H](NC(=O)c1cc2ccccc2[nH]1)C(=O)N[C@@H](C[C@@H]1CCNC1=O)C(O)S(=O)(=O)[O-].[Na+] (stereo partly shown) [Compound A-1-d] , thanks.
Result block: 1610 ng/mL

Query block: Let me know recorded Cmax for CC(C)C[C@H](NC(=O)c1cc2c(F)cccc2[nH]1)C(=O)N[C@H](C#N)C[C@@H]1CCNC1=O [Compound A-3-a] , thanks.
Result block: 8050 ng/mL
